In this section we review reported growth values for a set of compounds.
Tested on: OVCAR-5 ovarian
METHOD_SUMMARY: NCI-60 one-dose screen, 48 h (100 = growth as untreated, 0 = no growth, -100 = all killed)
DETAILS: 10 µM
Compounds without any hit were thinned out: in the full panel of roughly 83,000, 20% have a hit.

[
  {
    "COMPOUND": "C=CCNc1ccccc1",
    "DISPLAY_UNIT": "%",
    "growth": 106
  },
  {
    "COMPOUND": "CNC(=O)c1ccccc1CC1(O)c2ccccc2Oc2ccccc21",
    "DISPLAY_UNIT": "%",
    "growth": 80.4
  },
  {
    "COMPOUND": "S=C1CCCCCN1",
    "DISPLAY_UNIT": "%",
    "growth": 103
  },
  {
    "COMPOUND": "COc1ccc(C(C)C=O)cc1 (stereo not given)",
    "DISPLAY_UNIT": "%",
    "growth": 117
  },
  {
    "COMPOUND": "CCOC(=O)c1[nH]c(C)c(C(=O)O)c1C",
    "DISPLAY_UNIT": "%",
    "growth": 113
  }
]

Every entry's value here was drawn from PubChem BioAssay (NCI).
